Hello, the source for this data is patent US20150224182A1, in case you need it.

# Tested On: T1, HLA-B*0702 (human)
# T1 construct: also called HLA-B7
# Test Protocol: HLA-B7 eluate MS; ALL1; 2 means 1-5 copies/cell
Non-standard residues stand in square brackets, D forms with d. No end group written: not given here. pS = N[C@@H](COP(=O)(O)O)C(=O)O
Endpoint Label: binding result

{"Binder": "RPKPSS[pS]PV [PCBP2 phosphopeptide RPKPSSsPV]", "Measured Value": "binds"}
{"Binder": "RPD[pS]RLGKTEL [SETD2 phosphopeptide RPDsRLGKTEL]", "Measured Value": "binds"}
{"Binder": "RSL[pS]PLLF [VPS13D phosphopeptide RSLsPLLF]", "Measured Value": "binds"}
{"Binder": "RPAK[pS]MDSL [ARHGAP30 phosphopeptide RPAKsMDSL]", "Measured Value": "binds"}

Exam item: Entry KPY[pS]PLASL [NFATC2 phosphopeptide KPYsPLASL] has what binding result?
Marked response: binds

Exam item: Next binder: RPA[pS]PAAKL [KIAA1310 phosphopeptide RPAsPAAKL]
Marked response: binds
